measurement.protocol: NCI Yeast Anticancer Drug Screen. Data for the rad50 strain (AID 155);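 also: 0% = growth of vehicle-only cultures of the same strain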
experimental.parameters: S. cerevisiae rad50 strain growth inhibition; at 50.0 µM; active compounds read high
This is part of a sample that, as a whole, favours compounds with a hit. Of some 79,000 tested, about 15% had one in any assay.
Returns one of 1.0 or 0.0; 1.0 when growth inhibition is >= 20%.

| compound | cat |
| --- | --- |
| O=C1C=CC(=O)c2c1c1c(c3c2C2c4ccccc4C3c3ccccc32)C2c3ccccc3C1c1ccccc12 | 0.0 |
| Nc1cc(Br)cc2c1-c1ccc(Br)cc1C2=O | 0.0 |
| CC(C)(C)NC(NC(C)(C)C)=C(C(Cl)=C(Cl)Cl)[N+](=O)[O-] | 0.0 |
| N#Cc1c(N)c(C(=O)O)nn(-c2cccc(C(F)(F)F)c2)c1=O | 0.0 |
| Cc1cccc(-n2cnc3c(N(CCO)CCO)ncnc32)c1 | 0.0 |
| Nc1ncnc2c1nc(-c1ccccc1)n2C1OC(CO)C(O)C1O (configuration not stated) | 1.0 |
| CC1=C(C(=O)CC(=O)C(=O)NC2C3CC4CC(C3)CC2C4)Sc2ccccc2N1 (configuration not stated) | 0.0 |
| COC1=CC(=O)c2ccc3ccccc3c2C1=O | 1.0 |
| CCOC(=O)C1=C(C)N(c2ccccc2)C2=C(C(=O)N(c3ccccc3)C2c2ccccc2)C1c1ccccc1 (configuration not stated) | 0.0 |
| CON | 0.0 |
| CN(C)C(=O)Sc1ccc([N+](=O)[O-])cc1Cl | 0.0 |
| CC(N)c1ccc(OCCOc2ccc(C(C)(C)CC(C)(C)C)cc2)cc1 (configuration not stated) | 1.0 |
| C/C(=N\NC(=O)CC(=O)N(C(=O)c1ccccc1Cl)c1ccc(C)cc1)c1ccc(Cl)cc1 | 0.0 |
| CCOC(=O)c1ccc(C=O)cc1 | 0.0 |
| CC(=O)OCC1COC(C2CC=CCC2C)O1 (configuration not stated) | 0.0 |
| CSC(=S)Nc1nc2ccc(C)cc2s1 | 1.0 |
| O=C1C=C(C2CCCCC2)C(=O)c2ccccc21 | 0.0 |
| N#C/C(N)=C(\C#N)NC=NCc1ccccc1 | 0.0 |
| Clc1ccc(-c2onc3ccc(Br)cc23)cc1 | 0.0 |
| COc1ccc(Cc2cc3c(cc2OCCOC(C)=O)OCO3)cc1 | 0.0 |
| C[N+](C)(C)C12CCCC1S(=O)(=O)C2 (configuration not stated) | 0.0 |
| O=C1c2ccccc2C2(Br)C(=O)c3ccccc3C12Br (configuration not stated) | 1.0 |
| COc1cc2c(c(C3(O)C(=O)N(C)c4ccccc43)c1OC)OCO2 (configuration not stated) | 0.0 |
| O=C(OCCCl)OCCCl | 1.0 |
| O=C1CC2CC1C1CC(Br)C(Br)C21 (configuration not stated) | 0.0 |
| CC(C)(C)/[N+]([O-])=C/C1(C2(/C=[N+](\[O-])C(C)(C)C)Cc3ccccc3C2=O)Cc2ccccc2C1=O (configuration not stated) | 1.0 |
| CN1C(=O)C(n2[nH]c(=O)n(-c3ccccc3)c2=O)C(=O)N(C)C1=O | 0.0 |
| CC1=C(c2cc(C(=O)Nc3cccc(C(F)(F)F)c3)nc(NC#N)n2)Sc2ccccc2N1 | 0.0 |
| CC(=O)OCC(=O)[C@@]1(O)CC[C@H]2[C@@H]3C[C@H](Cl)C4=CC(=O)C=C[C@]4(C)[C@H]3C(=O)C[C@@]21C | 0.0 |
| CC(C)=C1C(=O)C[C@]2(C)C/C=C(\C)CC/C=C(\C)CC[C@@H]12 | 1.0 |
| O=P(NC1CCCCC1)(NC1CCCCC1)NC1CCCCC1 | 0.0 |
| CC1(C)OCC2OC=CC(=O)C2O1 (configuration not stated) | 0.0 |
| N#Cc1nc(CC(=O)c2ccc(Cl)c(Cl)c2)c(CC(=O)c2ccc(Cl)c(Cl)c2)nc1C#N | 0.0 |
| COC(=O)C1C2CC3C1C3C2C(=O)OC (configuration not stated) | 0.0 |
| O=C(O)C(S)c1ccc2ccccc2c1 (configuration not stated) | 1.0 |
| O=C(c1ccccc1)C(c1ccccc1)S(=O)(=O)N1CCCC1 (configuration not stated) | 0.0 |
| COc1c(O)c(O)c2c(c1O)C(=O)c1cc(C)cc(O)c1C2=O | 0.0 |
| CCCCC(CC)COC(=O)C(C)CCC (configuration not stated) | 0.0 |
| COc1ccc(Cl)cc1NC(=O)Nc1cccc(C(C)=O)c1 | 0.0 |
| O=C(COc1ccc(Cl)c(Cl)c1)NCc1cccc(Cl)c1 | 0.0 |
| CC1(CO)COC(c2ccccc2)=N1 (configuration not stated) | 0.0 |
| CC(=N\[O-])/C(C)=N/O.CC(=N\[O-])/C(C)=N/O.CCCc1ccncc1.[Cl-].[Cl-].[Rh+3] | 0.0 |
| CCCCNS(=O)(=O)CCCC | 1.0 |
| CCCCCCCN(CCCCCCC)CC(O)c1c(OC)c2ccccc2c2ccccc12 (configuration not stated) | 1.0 |
| C#Cc1cccc(N=Cc2cc(Cl)cc(C)c2O)c1 | 0.0 |
| O=S(=O)(N=S(c1ccccc1)c1ccccc1)c1ccccc1 | 0.0 |
| COc1ccc(/C(C#N)=C\c2ccc(N(C)C)cc2)cc1 | 0.0 |
